System: rodent lifetime carcinogenesis bioassay, tumor incidence TD50
Assay: carcinogenic potency in animals, long-term in vivo studies, CPDB compilation (AID 1745844)
Details: mouse; strain B6C3F1; males; inhaled; site: liver; lesion: hepatocellular adenoma; dosed 13 weeks; study length 104 weeks

>  <molecule_smiles>
C=CC=C

>  <TD50>
17.9 mg/kg/day

$$$$

====

Test system: rodent lifetime carcinogenesis bioassay, tumor incidence TD50
Test: carcinogenic potency in animals, long-term in vivo studies, CPDB compilation (AID 1745844)
Settings: rat; strain Fischer 344; females; in feed; site: subcutaneous tissue; lesion: fibroma; dosed 103 weeks; study length 104 weeks

>  <molecule_smiles>
N=C1C=CC(=C(c2ccc(N)cc2)c2ccc(N)cc2)C=C1

>  <TD50>
44.5 mg/kg/day

$$$$
>  <molecule_smiles>
Oc1ccc2ccccc2c1N=Nc1ccccc1

>  <TD50>
346 mg/kg/day

$$$$

These entries and their values trace back to PubChem BioAssay AID1745844.
